tested on: RNA polymerase II Serine 5 phosphorylation (Rpb1 CTD), downstream substrate of CDK7; experiment: Imaging-based cellular RNA PolII Ser5 phosphorylation assay in A549 cells; assay type: cell-based, human; conditions: Homo sapiens, A549, 3 h, challenged with compound for 3 hours, read-out: pRNA polII Ser5 (A549) pIC50 (converted)
Metric: log10 IC50 (log10 of the value in nM)
Field: value | Transform: log10 | Quantity: IC50 | Unit: nM

Worked examples, 2 compounds total:
- CN1CC[C@H](C(=O)N2Cc3nc(NC4CCOCC4)ncc3C(C)(C)C2)[C@@H](c2ccccc2)C1: 3.56
- CC1CN(C(=O)[C@H]2CCN(C)C[C@@H]2c2ccccc2)Cc2nc(Nc3cnn(C)c3)ncc21 (mixture of isomers): 2.04

Briefly, log10 IC50 measured for C[C@@H]1CN(C(=O)[C@H]2CCN(C)C[C@@H]2c2ccccc2)[C@H](C)c2nc(NC3CCOCC3)ncc21 (relative stereo) : 3.63

Record Cc1cccc([C@@H]2CN(C)CC[C@H]2C(=O)N2Cc3nc(Nc4cnn(C)c4)ncc3C[C@H]2C)c1 (relative stereo) , field log10 IC50: 2.90

Entry CO[C@H]1CC[C@H](Nc2ncc3c(n2)CN(C(=O)[C@@H]2CCN(C)C[C@H]2c2ccnc(C)c2)[C@H](C)C3)CC1 (relative stereo) — recorded log10 IC50 = 2.61

---

test system: RNA polymerase II Serine 5 phosphorylation (Rpb1 CTD), downstream substrate of CDK7; assay: Imaging-based cellular RNA PolII Ser5 phosphorylation assay in A549 cells; assay type: cell-based, human; details: Homo sapiens, A549, 3 h, challenged with compound for 3 hours, read-out: pRNA polII Ser5 (A549) pIC50 (converted)
Metric: IC50

• C[C@@H]1Cc2cnc(Nc3cnn(CC(C)(C)O)c3)nc2CN1C(=O)[C@H]1CCN(C)C[C@@H]1c1ccccc1 [Compound 74] = 178 nM
• CC[C@H]1Cc2cnc(NC3CCOCC3)nc2CN1C(=O)[C@H]1CCN(C)C[C@@H]1c1ccccc1 (relative stereo) [Compound 186] = > 10000 nM
• C[C@@H]1Cc2cnc(N[C@H]3CC[C@H](C)CC3)nc2CN1C(=O)[C@H]1CCN(C)C[C@@H]1c1ccccc1 [Compound 13] = ~33.9 nM

Moving on to another compound below.
Sample C[C@@H]1Cc2cnc(Nc3cnn(C)c3)nc2CN1C(=O)[C@H]1CCN(C)C[C@@H]1c1ccccc1 [Compound 82] ; IC50 observed: ~46.8 nM

---

target: CDK7/Cyclin H/MAT-1 complex (Homo sapiens); construct: Human CDK7 (amino acids 1-346); His6 (N); TEV protease cleavage site (N); made in house; host or cells: baculovirus-SF9 insect cells; experiment: Absorbance kinetic assay (20 nM CDK7/Cyclin H/MAT-1 complex); format: biochemical
Sequence (P50613 whole entry, the tested form may be a part): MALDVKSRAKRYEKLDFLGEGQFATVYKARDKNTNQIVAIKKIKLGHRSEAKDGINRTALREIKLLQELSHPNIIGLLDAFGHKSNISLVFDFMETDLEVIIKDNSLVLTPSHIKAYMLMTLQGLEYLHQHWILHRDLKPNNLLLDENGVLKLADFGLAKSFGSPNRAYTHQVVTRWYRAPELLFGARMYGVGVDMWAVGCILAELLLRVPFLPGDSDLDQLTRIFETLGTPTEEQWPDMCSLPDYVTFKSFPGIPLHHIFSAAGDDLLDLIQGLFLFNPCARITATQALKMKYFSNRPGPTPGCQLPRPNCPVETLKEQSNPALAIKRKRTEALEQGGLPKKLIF
Sequence (P51946 whole entry partner, the tested form may be a part): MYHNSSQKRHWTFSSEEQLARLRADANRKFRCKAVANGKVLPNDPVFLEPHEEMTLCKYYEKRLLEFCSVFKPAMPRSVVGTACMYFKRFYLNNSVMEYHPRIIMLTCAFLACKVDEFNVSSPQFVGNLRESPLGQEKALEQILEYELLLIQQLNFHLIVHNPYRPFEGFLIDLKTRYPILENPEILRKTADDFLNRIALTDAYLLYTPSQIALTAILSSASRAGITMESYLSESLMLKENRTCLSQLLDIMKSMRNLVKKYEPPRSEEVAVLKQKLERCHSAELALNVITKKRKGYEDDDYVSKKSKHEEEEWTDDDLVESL
Sequence (P51948 whole entry partner, the tested form may be a part): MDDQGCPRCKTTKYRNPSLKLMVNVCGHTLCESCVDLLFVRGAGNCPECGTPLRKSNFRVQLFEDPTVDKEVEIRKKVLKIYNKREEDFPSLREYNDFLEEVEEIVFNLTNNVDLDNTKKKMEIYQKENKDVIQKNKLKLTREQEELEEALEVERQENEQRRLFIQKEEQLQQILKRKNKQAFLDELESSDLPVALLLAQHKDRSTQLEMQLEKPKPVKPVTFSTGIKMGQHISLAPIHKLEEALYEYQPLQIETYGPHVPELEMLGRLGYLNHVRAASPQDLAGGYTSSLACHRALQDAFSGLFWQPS
Each record here notes measured CDK7 (20 nM) pIC50.

Use the examples below as a reference point.
• C[C@@H]1c2nc(NC3CCOCC3)ncc2[C@@H](C)CN1C(=O)[C@H]1CCN(C)C[C@@H]1c1ccccc1 [Compound 180a] = >8.01
• C[C@@H]1Cc2cnc(NC3CCC(OCC4CC4)CC3)nc2CN1C(=O)[C@H]1CCN(C)C[C@@H]1c1ccccc1 (stereo partly drawn) [Compound 3] = >8.01

Let us move to another entry and its CDK7 (20 nM) pIC50.
Reported CDK7 (20 nM) pIC50 of C[C@@H]1Cc2cnc(NC3CCC(OC(F)F)CC3)nc2CN1C(=O)[C@H]1CCN(C)C[C@@H]1c1ccccc1 (stereo partly drawn) [Compound 69] : >8.01
